Listed here: items and their measured OD value.
biological target: T1, Control-1 (C1), a muFc-containing fusion protein; assay: phage supernatant ELISA, coated control protein, anti-HA HRP, A450-A650
T1 construct: Negative panning and ELISA control
Just the number in OD, nothing appended.

binder: iGI-9 (VHH, Tested as supernatant of a helper-phage-rescued clone (pComb3XSS), detected by anti-HA tag) VHH: QVQLVESGGGLVQPGGSLRLSCETSKILFSSAYTMGWYRQAPGKQRELVATITTDYITNYVDSVKGRFTISRDNAKNTVYLQMNTLKLEDTAVYYCNARWGRDYWGQGTQVTVSS
OD value (OD): 0.018
//
binder: iGI-44 (VHH, Tested as supernatant of a helper-phage-rescued clone (pComb3XSS), detected by anti-HA tag) VHH: QVQLVESGGGLVQAGGSLKLSCAASGRTFSSKAMGWFRQAPGKEREFVAAINWSGDRTYHVNSIKGRFTISRDNAKNTVYLQMNSLKPEDTAVYYCTADRRDRATIPFQWHYWGQGTQVTVSS
OD value (OD): 0.018
//
binder: iGI-72 (VHH, Tested as supernatant of a helper-phage-rescued clone (pComb3XSS), detected by anti-HA tag) VHH: QVQLVESGGGLVQPGGSLRLSCAASRYTLDYYAIGWFRQAPGKEREGVSCINSKDGSTYYADSVKGRFTISKDNAKNTVYLQMNSLKPEDTAVYYCAAGYDPWSGIPPVQAMCVMGYDYWGQGTQVTVSS
OD value (OD): 0.019

Reported OD value, binder iGI-51 (VHH, Tested as supernatant of a helper-phage-rescued clone (pComb3XSS), detected by anti-HA tag) VHH: QVQLVESGGKLVQAGGSLRLDCVASGRTFSYYAIGWYRQAPGKEREFVAAIRASGGSTYYADSVKGRFTASRDNAKNTGYLQMNSLKPEDTAVYFCYAATIVPITPSTHGYWGQGTQVTVSS : ____
0.042

Reported OD value, binder iGI-27 (VHH, Tested as supernatant of a helper-phage-rescued clone (pComb3XSS), detected by anti-HA tag) VHH: QVQLVESGGALVQTGGSLRLFCAASGDTICITNMNWYRQAPGKGREFVAAITRSGRTLYADYVKGRFTISRDNARNTMSLQMNSMTSEDTAVYYCNADQNQTICAAEPSAWGRGTQVTVSS : ____
0.018
